Entries and their melting point

[[record]]
compound = "O=C1C=C(Br)C(=O)c2ccccc21"
assay_metric = "melting point"
value_measured = "130 to 132 °C"

[[record]]
compound = "CCOC(=O)c1c(COc2cccc(C)n2)nc2cc(OC)c(OC)cc2c1-c1ccc(OC)c(OC)c1"
assay_metric = "melting point"
value_measured = "173 to 174 °C"

[[record]]
compound = "O=C1O[C@H](CO)CN1c1ccc(C2CCCCC2)cc1"
assay_metric = "melting point"
value_measured = "166 to 168 °C"


Q) Using the record for COC1C(O)C(CO)OC1n1cnc2c(=O)[nH]c(N)nc21 (stereo not given) , state its measured melting point.
A) 236 to 238 °C

Q) Using the record for Cc1cc(SC(C)C)c(NC(=O)CCCCCCSc2nc3ccccc3o2)c(SC(C)C)n1 , state its measured melting point.
A) 76 to 78 °C

Q) Using the record for CN1C(=O)CC[C@]2(C)c3ccc(Sc4ccc5c([N+](=O)[O-])cccc5n4)cc3CC[C@@H]12 , state its measured melting point.
A) 149 to 154 °C

Q) Using the record for CCN(CC)CCOC(=O)c1cnc2ccn(-c3ccccc3)n2c1=O , state its measured melting point.
A) 127 to 130 °C

Q) Using the record for Cn1cnc(-c2ccc(NC(=C3C(=O)Oc4ccccc43)c3ccc(C4(N)CC4)cc3)cc2)c1 , state its measured melting point.
A) 190 to 191 °C

Q) Using the record for COc1ccc(OCc2ccccc2)cc1N , state its measured melting point.
A) 81 °C

Q) Using the record for CCCCCCCCCCCCCCOc1ccc([N+](=O)[O-])cc1 , state its measured melting point.
A) 57 to 60 °C

----------
Assay metric: melting point

Solved entries (count: 4):
[[record]]
compound = "[N-]=[N+]=C(C(=O)CCc1ccc(S(=O)(=O)Cl)cc1)C(=O)CCc1ccc(S(=O)(=O)Cl)cc1"
value_measured = "121 to 122 °C"

[[record]]
compound = "Cc1cc(C2=C(C=CC3CC(O)CC(=O)O3)C(C)(C)CC(N3CCCC3)C2)ccc1F (centres undefined)"
value_measured = "120 to 123 °C"

[[record]]
compound = "CC(C)n1c(=O)ccc2cnc(Nc3cccc([N+](=O)[O-])c3)nc21"
value_measured = "202 to 203 °C"

[[record]]
compound = "COc1cccc2c1S(=O)(=O)c1ccccc1C2(CCOS(C)(=O)=O)CCOS(C)(=O)=O"
value_measured = "200 to 202 °C"


Q) Using the record for COc1cc(OC)c(C)c(C(=O)NCC23CC4CC(CC(C4)C2)C3)c1 , state its measured melting point.
A) 173 to 175 °C

Q) Using the record for COc1ccc(-n2ncc3c2-c2ccccc2C3)cc1 , state its measured melting point.
A) 102 to 103 °C

Q) Using the record for CC(C)(C)OCC(NC(=O)c1ccccc1SSc1ccccc1C(=O)NC(COC(C)(C)C)C(=O)O)C(=O)O (centres undefined) , state its measured melting point.
A) 206 to 207 °C

Q) Using the record for CCCNC(=O)N(Cc1ccccc1)NC(=O)OC(C)(C)C , state its measured melting point.
A) 123 to 124 °C

Q) Using the record for CCCCCCCCCc1ccc(C(Sc2cccc(NC(=O)CC(=O)O)c2)C(=O)CCCC(=O)O)cc1 (centres undefined) , state its measured melting point.
A) 88 to 91 °C

----------
Assay metric: melting point

Solved entries (count: 3):
[[record]]
smiles_representation = "Cc1cccc(C)c1CNc1cc(C(=O)NN)cc2c1nc(C)n2C"
assay_metric = "melting point"
value_measured = "277 to 278 °C"

[[record]]
smiles_representation = "C#CCOc1cc(-c2ncc(C(F)(F)F)cc2Cl)ccc1Cl"
assay_metric = "melting point"
value_measured = "102 to 103 °C"

[[record]]
smiles_representation = "CCN(CC)c1ccc(-c2ncccc2S(=O)(=O)Nc2ncc(C)nc2OC)cc1"
assay_metric = "melting point"
value_measured = "115 to 117 °C"


Q) Using the record for CN(CC#N)[C@H](COCc1cc(C(F)(F)F)cc(C(F)(F)F)c1)c1ccccc1 , state its measured melting point.
A) 110 to 111 °C

Q) Using the record for COc1cc(NS(=O)(=O)c2ccc(N3CCNC3=O)cc2)cc(OC)c1 , state its measured melting point.
A) 200 to 201 °C

Q) Using the record for CCCCc1ccccc1NC(C)=O , state its measured melting point.
A) 96.5 to 99.5 °C

Q) Using the record for Cc1nn(-c2cc(C(=O)NS(=O)(=O)N(C)C(C)C)c(Cl)cc2F)c(=O)n1C(F)F , state its measured melting point.
A) 118 to 122 °C

Q) Using the record for CS(=O)(=O)c1cc(C(F)(F)F)ns1 , state its measured melting point.
A) 93 to 94 °C

Q) Using the record for Cn1nc2ccccc2c1C(=O)NC1CCN(Cc2ccccc2)CC1 , state its measured melting point.
A) 167 to 169 °C

Q) Using the record for CCCNC(=S)Nc1nc(OCc2cccc(C#N)c2)ncc1F , state its measured melting point.
A) 163 to 165 °C

----------
Entries and their melting point

Solved entries (count: 5):
[[record]]
compound = "CC(C)N(CCCC(=O)OC1c2ccccc2C(=O)N1c1ccc2ccc(Cl)nc2n1)C(C)C (stereo unspecified)"
assay_metric = "melting point"
value_measured = "118 °C"

[[record]]
compound = "COc1ccc(Cn2cc(C(F)(F)F)ccc2=O)cc1"
assay_metric = "melting point"
value_measured = "84.2 to 86.1 °C"

[[record]]
compound = "CC(C)(O)C#Cc1ncn2c1[C@@H]1CCCN1C(=O)c1ccccc1-2"
assay_metric = "melting point"
value_measured = "128 °C"

[[record]]
compound = "CC(C)C(=O)Nc1ccc(C(=O)Nc2ccccc2[N+](=O)[O-])cc1"
assay_metric = "melting point"
value_measured = "238 °C"

[[record]]
compound = "CNC(=O)C(=NOC)C1=C(COc2ccccc2C)CC(C)=C(C)C1"
assay_metric = "melting point"
value_measured = "96 to 98 °C"


Q) Using the record for CC(C(=O)O)c1ccc2c(c1)C(=O)c1cc(Cl)ccc1CS2 (stereo unspecified) , state its measured melting point.
A) 128 to 131 °C

Q) Using the record for CC(=O)OCCN1CCNC1=Nc1ccccc1N1CCOCC1 , state its measured melting point.
A) 89 to 91 °C

Q) Using the record for O=C(O)[C@H]1CCCN1C(=O)Cc1ccc(CC(=O)N2CCC[C@@H]2C(=O)O)cc1 , state its measured melting point.
A) 210 to 214 °C

Q) Using the record for CC(=O)Nc1c(C#N)c(Cl)c(C#N)n1C , state its measured melting point.
A) 180 to 182 °C

Q) Using the record for CSc1cc(CBr)cc(SC)c1 , state its measured melting point.
A) 76 to 77 °C

Q) Using the record for Nc1n[nH]c2cc(Br)ccc12 , state its measured melting point.
A) 222 to 225 °C

----------
Entries and their melting point

Q) Using the record for CCOC(=O)/C=C/c1ccc2cc(OCc3ccccc3)ccc2c1 , state its measured melting point.
A) 110 to 112 °C

----------
Entries and their melting point

Solved entries (count: 3):
[[record]]
compound = "CSc1cc(C)nc(SC)c1NC(=O)CCCCCSc1nc2ncccc2o1"
assay_metric = "melting point"
value_measured = "132 to 133 °C"

[[record]]
compound = "O=C(/C=C/C=C/c1ccccc1Cl)NCCCCCC(=O)NO"
assay_metric = "melting point"
value_measured = "129 to 131 °C"

[[record]]
compound = "CCOC(=O)c1cc(=O)cc(-c2ccccc2Cl)o1"
assay_metric = "melting point"
value_measured = "104 to 106 °C"


Q) Using the record for NC(=O)c1ccccc1N1CCc2cc(Br)ccc21 , state its measured melting point.
A) 120 to 122 °C

Q) Using the record for CCOC(=O)Cc1ccc(NC(=O)C(COc2ccc(Cl)cc2)NS(=O)(=O)c2ccc(F)cc2)cc1 (racemic) , state its measured melting point.
A) 132 to 134 °C

Q) Using the record for O=[N+]([O-])c1cnc(Sc2nccnc2Cl)s1 , state its measured melting point.
A) 139 to 141 °C

Q) Using the record for O=C(NCc1ccccc1)C(Cc1c[nH]c2ccccc12)NC(=O)C(F)(F)F (stereo not drawn) , state its measured melting point.
A) 186 to 188 °C

Q) Using the record for CCCCc1nc(C(F)(F)F)c(CO)n1Cc1ccc(-c2ccccc2C#N)cc1 , state its measured melting point.
A) 136 to 138 °C

Q) Using the record for O=C(Nc1nc(C(=O)NC2CN3CCC2CC3)cs1)c1ccc(OCc2ccccc2)cc1 (stereo not drawn) , state its measured melting point.
A) 196 °C

Q) Using the record for NC(=Nc1ccc(CCNC(=O)c2cc(N)ccc2O)cc1)c1cccs1 , state its measured melting point.
A) > 260 °C

Q) Using the record for CC(C)(O)Cn1cnc2c(N)nc3cc(CCC(=O)N4CCOCC4)ccc3c21 , state its measured melting point.
A) 217 to 218 °C

Q) Using the record for O=C1Nc2cccc(NC(=O)c3cccn(-c4ccc(F)cc4)c3=O)c2/C1=C/c1ccc[nH]1 , state its measured melting point.
A) > 300 °C

Q) Using the record for COC(=O)c1ccccc1-c1nc(COc2ccc(C=O)cc2OC)c(C)o1 , state its measured melting point.
A) 129 to 130 °C

Q) Using the record for CS(=O)(=O)c1ncnn1CC(O)(Cc1ccccc1Cl)C1(Cl)CC1 (stereo not drawn) , state its measured melting point.
A) 125 to 128 °C

Origin of the recorded values: a melting point compilation (Tetko et al.; mined from patent text by program, amines drawn as free bases though some values may be those of a salt)
